Entries and their EC50
target: hGLP-1R (Homo sapiens); assay: Functional cAMP activation in the presence of 0.1% casein (no HSA); assay type: cell-based; details: in the presence of 0.1% casein (no HSA); geometric mean; read-out: Relative cAMP EC50, hGLP-1R;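 further: intracellular cAMP rise after 30 min at 37 °C read by HTRF, normalized between buffer only (0%) and maximal control ligand (100%), four-parameter variable-slope fit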
Sequence (P43220 24-463): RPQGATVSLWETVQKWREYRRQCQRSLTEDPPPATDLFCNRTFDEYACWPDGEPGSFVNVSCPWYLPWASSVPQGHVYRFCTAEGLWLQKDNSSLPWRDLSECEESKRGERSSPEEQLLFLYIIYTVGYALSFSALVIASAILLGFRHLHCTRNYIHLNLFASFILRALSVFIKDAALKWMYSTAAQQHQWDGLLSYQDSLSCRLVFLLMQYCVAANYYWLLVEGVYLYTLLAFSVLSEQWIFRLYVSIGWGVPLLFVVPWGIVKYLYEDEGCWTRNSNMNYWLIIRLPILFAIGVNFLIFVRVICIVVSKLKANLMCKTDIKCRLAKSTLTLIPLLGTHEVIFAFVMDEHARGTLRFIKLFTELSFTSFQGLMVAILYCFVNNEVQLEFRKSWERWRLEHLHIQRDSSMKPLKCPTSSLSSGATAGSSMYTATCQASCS
Starred links: 1 amine or outer side, 2 acyl side, 3 side chain; linkers in the order of their positions; H or OH if unused. Non-standard residues stand in square brackets, D forms with d. Groups on a side chain read outwards from the residue. *: point of attachment. C18 diacid = O=C(O)CCCCCCCCCCCCCCCCC(=O)*; Phe(4-CN) = N#Cc1ccc(C[C@H](N)C(=O)O)cc1; γGlu = O=C(O)[C@H](CCC(=O)[*:2])N[*:1]; αMe4Pal = C[C@](N)(Cc1ccncc1)C(=O)O; 4Pal = N[C@@H](Cc1ccncc1)C(=O)O; αMeL = CC(C)C[C@](C)(N)C(=O)O; Orn = NCCC[C@H](N)C(=O)O; AEEA = NCCOCCOCC(=O)O; Aib = CC(C)(N)C(=O)O
Express it in nM; write the number only.

substance	target_desc	EC50, nM
H-Y[Aib]QGTFTSD[4Pal]SQ[αMeL]LDKK([γGlu-γGlu-C18 diacid])AQ[αMe4Pal]AFIE[αMe4Pal]LIE[Aib]GPSSGEPPPSGEEE-NH2 [Example 1124]	hGLP-1R (Homo sapiens)	10.1
H-Y[Aib]QGTFTSD[4Pal]SQ[αMeL]LDKK([AEEA-γGlu-C18 diacid])AQ[αMe4Pal]AFIE[αMe4Pal]LIE[Aib]GPSSGAPPPSGTE-NH2 [Example 1116]	hGLP-1R (Homo sapiens)	4.63
H-Y[Aib]QGTFTSD[4Pal]SQ[αMeL]LDKK([AEEA-γGlu-C18 diacid])AQ[αMe4Pal]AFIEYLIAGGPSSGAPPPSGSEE-NH2 [Example 1029]	hGLP-1R (Homo sapiens)	1.79
H-Y[Aib]QGTFTSD[4Pal]S[Orn][αMeL]LD[Orn]K([γGlu-γGlu-C18 diacid])AQ[Aib]AFIEYLLAGGPSSGAPPPSGSEE-NH2 [Example 1069]	hGLP-1R (Homo sapiens)	8.87
H-Y[Aib]QGTFTSDFS[Orn][αMeL]LDKK([AEEA-AEEA-γGlu-C18 diacid])AQ[Aib]AFIEYLLEGGPSSGAPPPGES-NH2 [Example 118]	hGLP-1R (Homo sapiens)	6.03

QUERY: What value of measured EC50 is listed for H-Y[Aib]QGTFTSD[Phe(4-CN)]S[Orn][αMeL]LDKK([AEEA-γGlu-C18 diacid])AQ[Aib]AFIEYLLE[Aib]GPSSGAPPPSGS-NH2 [Example 191] ?
RESULT: 2.48

###

Entries and their pEC50
molecular target: hGcgR (Homo sapiens, UniProt P47871); experiment: Functional cAMP activation in the presence of 0.1% casein (no HSA); type: cell-based; details: read-out: Relative cAMP EC50, hGcgR;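 on Relative cAMP EC50, hGcgR: intracellular cAMP rise after 30 min at 37 °C, read by HTRF against a cAMP standard curve, scaled from buffer only (0%) to maximal control ligand response (100%)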
Sequence (P47871 26-477): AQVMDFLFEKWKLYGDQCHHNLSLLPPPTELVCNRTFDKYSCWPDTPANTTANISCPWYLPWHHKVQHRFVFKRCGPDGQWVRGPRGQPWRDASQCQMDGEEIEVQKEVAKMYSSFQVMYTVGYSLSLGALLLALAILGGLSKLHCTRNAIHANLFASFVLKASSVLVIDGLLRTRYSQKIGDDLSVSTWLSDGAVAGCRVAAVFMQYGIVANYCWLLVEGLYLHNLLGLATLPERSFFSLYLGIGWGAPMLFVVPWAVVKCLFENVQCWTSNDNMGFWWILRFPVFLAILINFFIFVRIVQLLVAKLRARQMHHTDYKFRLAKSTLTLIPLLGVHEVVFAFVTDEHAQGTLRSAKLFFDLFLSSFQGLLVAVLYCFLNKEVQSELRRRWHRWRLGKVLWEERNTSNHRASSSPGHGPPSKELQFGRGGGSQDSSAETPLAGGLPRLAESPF
Starred links: 1 amine or outer side, 2 acyl side, 3 side chain; linkers in the order of their positions; H or OH if unused. Non-standard residues stand in square brackets, D forms with d. Groups on a side chain read outwards from the residue. No end group written: not given here. *: point of attachment. C18 diacid = O=C(O)CCCCCCCCCCCCCCCCC(=O)*; αMePhe(2-F) = C[C@](N)(Cc1ccccc1F)C(=O)O; γGlu = O=C(O)[C@H](CCC(=O)[*:2])N[*:1]; αMe4Pal = C[C@](N)(Cc1ccncc1)C(=O)O; αMeY = C[C@](N)(Cc1ccc(O)cc1)C(=O)O; 4Pal = N[C@@H](Cc1ccncc1)C(=O)O; αMeL = CC(C)C[C@](C)(N)C(=O)O; αMeS = C[C@](N)(CO)C(=O)O; Orn = NCCC[C@H](N)C(=O)O; Aib = CC(C)(N)C(=O)O
A value of pEC50 is the negative decimal logarithm of a concentration given in moles per litre.

QUERY: Param readout = pEC50; param system = hGcgR (Homo sapiens, UniProt P47871); param query = Y[Aib]QGT[αMePhe(2-F)]TSD[4Pal][αMeS]I[αMeL]LD[Orn]K([Glu-γGlu-C18 diacid])AQ[Aib][Orn]FI[dE][αMeY]LSEGGPSSGEPPPSGTEE-NH2 [Example 564] ; response: value
RESULT: 7.99

QUERY: Param readout = pEC50; param system = hGcgR (Homo sapiens, UniProt P47871); param query = H-Y[Aib]QGT[αMePhe(2-F)]TSDYSILLDKK([γGlu-γGlu-C18 diacid])AQ[Aib]AFIEYLEEGGPSSGAPPPEEG-NH2 [Example 471] ; response: value
RESULT: 8.66

QUERY: Param readout = pEC50; param system = hGcgR (Homo sapiens, UniProt P47871); param query = H-Y[Aib]QGT[αMePhe(2-F)]TSD[4Pal][αMeS]I[αMeL]LD[Orn]K([γGlu-γGlu-C18 diacid])AQ[αMe4Pal]EFI[dE][αMeY]LIEGGPSSGEPPPSGS-NH2 [Example 715] ; response: value
RESULT: 9.00

QUERY: Param readout = pEC50; param system = hGcgR (Homo sapiens, UniProt P47871); param query = H-Y[Aib]QGT[αMePhe(2-F)]TSD[4Pal][αMeS]ILLD[Orn]K([γGlu-γGlu-C18 diacid])AQ[Aib][Orn]FI[dE][αMeY]LQEGGPSSGEPPPSGAEE-NH2 [Example 575] ; response: value
RESULT: 8.43
